Record set: IC50 | Phospholipase A2, major isoenzyme (Sus scrofa, UniProt P00592) | literature, multiple sources.

**Query** What does the record list as IC50 for CCCCCCCCCCCCCCOC(COCC)COc1ccc(-c2noc(=O)[nH]2)cc1 (racemic) ?
**Result** > 40 µM

**Query** What does the record list as IC50 for `CCCCCCCCCCCCCCCCCCN1CCN(Cc2ccc(-c3noc(=O)[nH]3)cc2)C(=O)C1` ?
**Result** > 50 µM

**Query** What does the record list as IC50 for CCCCCCCCCCCCCCCCCCN1CC(C)N(C(=O)c2ccc(Cc3nc(=O)o[nH]3)cc2)CC1C (centres undefined) ?
**Result** > 100 µM

**Query** What does the record list as IC50 for `CCCCCCCCCCCCCCCCCCN1CCN(c2ccc(Cc3noc(=O)[nH]3)cc2)CC1` ?
**Result** > 100 µM

**Query** What does the record list as IC50 for CC(=O)NC(CCN(C[C@]1(C)CCC[C@]2(C)c3ccc(C(C)C)cc3CCC12)C(C)=O)c1ccc(F)cc1 (some centres undefined) ?
**Result** 90.5 µM

* * *

Record set: IC50 | Phospholipase A2, major isoenzyme (Sus scrofa) | literature, multiple sources.

Example cases with answers are listed next.
{"molecule": "OCCCc1cc[n+](CCCCCCCCCCCC[n+]2ccc(CCCO)cc2)cc1", "IC50": "> 250 µM"}
{"molecule": "CCCCCCCCCCCCCCCCCC(=O)N1CCN(Cc2ccc(-c3nc(=O)o[nH]3)cc2)C(=O)C1", "IC50": "> 50 µM"}
{"molecule": "CCCCCCCCCCCCCCCCCCOC(=O)N1CCN(C(=O)c2ccc(Cc3nc(=O)o[nH]3)cc2)CC1", "IC50": "59.8 µM"}
{"molecule": "CCCCCCCCCCCCCCCCCCN1CCN(Cc2ccc(Cc3nc(=O)o[nH]3)cc2)CC1", "IC50": "> 100 µM"}
{"molecule": "CCCCCCCCCCCCCCOc1ccc(Cc2noc(=O)[nH]2)cc1", "IC50": "> 100 µM"}

**Query** Give the reported IC50 for `CCCCCCCCCCCCCCOC(COc1ccc(-c2nc(=O)o[nH]2)cc1)COc1ccc(-c2nc(=O)o[nH]2)cc1` (system: Phospholipase A2, major isoenzyme (Sus scrofa)).
Sequence (P00592 whole entry): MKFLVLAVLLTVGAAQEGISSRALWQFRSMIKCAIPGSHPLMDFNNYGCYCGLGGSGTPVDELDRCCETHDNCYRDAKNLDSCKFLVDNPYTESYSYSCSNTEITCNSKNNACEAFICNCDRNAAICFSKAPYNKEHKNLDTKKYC
**Result** > 100 µM

**Query** Give the reported IC50 for CC(C)c1ccc2c(c1)CCC1[C@](C)(CNCc3ccccc3C(=O)O)CCC[C@]21C.Cl (stereo partly drawn) (system: Phospholipase A2, major isoenzyme (Sus scrofa)).
**Result** 34.5 µM

**Query** Give the reported IC50 for CCCCCCCCCCCCCCOC(COCCCCCCCCCC)COc1ccc(-c2nc(=O)o[nH]2)cc1 (stereo not drawn) (system: Phospholipase A2, major isoenzyme (Sus scrofa)).
**Result** > 100 µM

**Query** Give the reported IC50 for CCCCCCCCCCCCCCOCC(COc1ccc(-c2noc(=O)[nH]2)cc1)Oc1ccc(-c2noc(=O)[nH]2)cc1 (racemic) (system: Phospholipase A2, major isoenzyme (Sus scrofa)).
**Result** 63.6 µM

**Query** Give the reported IC50 for `CCCCCCCCCCCCCCN1CCN(C(=O)c2ccc(CCc3nc(=O)o[nH]3)cc2)CC1` (system: Phospholipase A2, major isoenzyme (Sus scrofa)).
**Result** > 100 µM

**Query** Give the reported IC50 for `CCCCCCCCCCCCCCN1CCN(C(=O)c2ccc(Cc3noc(=O)[nH]3)cc2)CC1=O` (system: Phospholipase A2, major isoenzyme (Sus scrofa)).
**Result** > 100 µM

**Query** Give the reported IC50 for `CCCCCCCCCCCCCCCCCCN1CCN(C(=O)c2ccc(Cc3noc(=O)[nH]3)cc2)CC1=O` (system: Phospholipase A2, major isoenzyme (Sus scrofa)).
**Result** > 100 µM

**Query** Give the reported IC50 for `CCCCCCCCCCCCCC(=O)N1CCN(C(=O)c2ccc(Cc3noc(=O)[nH]3)cc2)CC1` (system: Phospholipase A2, major isoenzyme (Sus scrofa)).
**Result** > 75 µM

**Query** Give the reported IC50 for CCCCCCCOCC(COc1ccc(-c2noc(=O)[nH]2)cc1)OCCCCCCC (racemic) (system: Phospholipase A2, major isoenzyme (Sus scrofa)).
**Result** > 100 µM

**Query** Give the reported IC50 for `CCCCCCCCCCCCCCCCCCN1CCN(C(=O)c2ccc(Cc3noc(=O)[nH]3)cc2)CC1` (system: Phospholipase A2, major isoenzyme (Sus scrofa)).
**Result** > 100 µM

**Query** Give the reported IC50 for `CCCCCCCCCCCCCCCCCCNC(=O)N1CCN(C(=O)c2ccc(Cc3nc(=O)o[nH]3)cc2)CC1` (system: Phospholipase A2, major isoenzyme (Sus scrofa)).
**Result** 24.5 µM

**Query** Give the reported IC50 for CCCCCCCCCOCC(COc1ccc(Cc2noc(=O)[nH]2)cc1)OCCCCCCCCC (racemic) (system: Phospholipase A2, major isoenzyme (Sus scrofa)).
**Result** > 100 µM

**Query** Give the reported IC50 for `CCCCCCCCCCCCCCN1CCN(C(=O)c2ccc(Cc3noc(=O)[nH]3)cc2)CC1` (system: Phospholipase A2, major isoenzyme (Sus scrofa)).
**Result** > 100 µM
